List of AC50 values.
Biological target: UniProt P30542
Sequence (P30542 whole entry): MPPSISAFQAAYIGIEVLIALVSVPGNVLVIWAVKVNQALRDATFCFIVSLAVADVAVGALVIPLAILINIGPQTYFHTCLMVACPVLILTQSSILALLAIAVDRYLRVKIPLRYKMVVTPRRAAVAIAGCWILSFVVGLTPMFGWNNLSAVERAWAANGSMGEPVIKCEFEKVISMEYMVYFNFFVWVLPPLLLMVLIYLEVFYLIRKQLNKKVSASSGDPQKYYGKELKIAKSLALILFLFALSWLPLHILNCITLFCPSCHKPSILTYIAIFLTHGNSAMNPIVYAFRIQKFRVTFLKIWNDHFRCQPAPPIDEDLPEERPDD
Where a SMILES comes first, the peptide text is derived from it. [ ]: non-standard residue; d: D form. pGlu = O=C1CC[C@@H](C(=O)O)N1; Thz = O=C(O)[C@@H]1CSCN1
Quantity measured: AC50

{"columns": ["Molecule", "Reported"],
 "data": [
  ["C=CCN1CCc2nc(N)sc2CC1 [TALIPEXOLE]", "> 30 µM"],
  ["CN(C)C/C=C/C(=O)Nc1cc2c(Nc3ccc(F)c(Cl)c3)ncnc2cc1O[C@H]1CCOC1 [AFATINIB]", "> 30 µM"],
  ["O=C(CCCN1CCC(O)(c2ccc(Br)cc2)CC1)c1ccc(F)cc1 [BROMPERIDOL]", "> 30 µM"],
  ["Cc1cccc(C)c1NC(=O)CC12CCCN1CCC2 [PILSICAINIDE]", "> 30 µM"],
  ["CC(=O)Nc1ccc(CC(=O)O)cc1 [ACTARIT]", "> 30 µM"],
  ["CC(c1cc2ccccc2s1)N(O)C(N)=O (configuration not stated) [ZILEUTON]", "> 10 µM"],
  ["CN1Cc2c(N)cccc2C(c2ccccc2)C1 (configuration not stated) [NOMIFENSINE]", "> 30 µM"],
  ["O=C1CC[C@@H](C(=O)N2CSC[C@H]2C(=O)O)N1 [PIDOTIMOD] ([pGlu]-[Thz]-OH)", "> 30 µM"],
  ["c1ccc(C2(N3CCCCC3)CCCCC2)cc1 [PHENCYCLIDINE]", "> 30 µM"],
  ["C=C1c2cccc(O)c2C(=O)C2=C(O)[C@]3(O)C(=O)C(C(N)=O)=C(O)[C@@H](N(C)C)[C@@H]3[C@@H](O)[C@H]12 [METHACYCLINE]", "> 30 µM"],
  ["O=C1Cc2cc(CCN3CCN(c4nsc5ccccc45)CC3)c(Cl)cc2N1 [ZIPRASIDONE]", "> 30 µM"],
  ["CC(CN1c2ccccc2Sc2ccccc21)N(C)C (configuration not stated) [PROMETHAZINE]", "> 30 µM"],
  ["NS(=O)(=O)c1cc2c(cc1Cl)N=C(CSCc1ccccc1)NS2(=O)=O [BENZTHIAZIDE]", "> 10 µM"],
  ["O=C(O)Cc1ccccc1Nc1c(Cl)cccc1Cl [DICLOFENAC]", "> 30 µM"],
  ["Clc1ccc(CCC(Cn2ccnc2)Sc2c(Cl)cccc2Cl)cc1 (configuration not stated) [BUTOCONAZOLE]", "> 30 µM"],
  ["CC1=C(/C=C/C(C)=C/C=C/C(C)=C/CO)C(C)(C)CCC1 [RETINOL]", "> 10 µM"],
  ["NC(=O)NC(=O)Cc1ccccc1 [PHENACEMIDE]", "> 10 µM"],
  ["CN(C)Cc1nnc2n1-c1ccc(Cl)cc1C(c1ccccc1)=NC2 [ADINAZOLAM]", "> 10 µM"],
  ["CCOC(=O)[C@@H](N)Cc1ccc(-c2cc(O[C@H](c3ccc(Cl)cc3-n3ccc(C)n3)C(F)(F)F)nc(N)n2)cc1 [TELOTRISTAT ETHYL]", "> 30 µM"],
  ["CCCCOc1ccc(C(=O)CCN2CCCCC2)cc1 [DYCLONINE]", "> 30 µM"],
  ["O=C(O)COCCN1CCN(C(c2ccccc2)c2ccc(Cl)cc2)CC1 (configuration not stated) [CETIRIZINE]", "> 30 µM"],
  ["CCc1cc2c(s1)-n1c(C)nnc1CN=C2c1ccccc1Cl [ETIZOLAM]", "> 30 µM"],
  ["Cc1nc(Nc2ncc(C(=O)Nc3c(C)cccc3Cl)s2)cc(N2CCN(CCO)CC2)n1 [DASATINIB]", "> 30 µM"],
  ["CC(C)(C)NCC(O)c1ccccc1Cl (configuration not stated) [TULOBUTEROL]", "> 30 µM"],
  ["CC(C(=O)O)c1ccc2oc(-c3ccc(Cl)cc3)nc2c1 (configuration not stated) [BENOXAPROFEN]", "> 30 µM"],
  ["CCC(NC(C)C)C(O)c1ccc(O)c2[nH]c(=O)ccc12 (configuration not stated) [PROCATEROL]", "> 30 µM"],
  ["Cc1nnc(SCC2=C(C(=O)O)N3C(=O)[C@@H](NC(=O)Cn4cnnn4)[C@H]3SC2)s1 [CEFAZOLIN]", "> 300 µM"],
  ["CC(C)c1cccc(C(C)C)c1O [PROPOFOL]", "> 30 µM"],
  ["Clc1ccc(Cn2c(CN3CCCC3)nc3ccccc32)cc1 [CLEMIZOLE]", "> 30 µM"],
  ["CC(C)[C@@H](C)/C=C/[C@@H](C)[C@H]1CC[C@H]2/C(=C/C=C3\\C[C@@H](O)CC[C@@H]3C)CCC[C@]12C [DIHYDROTACHYSTEROL]", "> 10 µM"],
  ["CC(=O)O[C@]1(C(C)=O)CC[C@H]2[C@@H]3C=C(Cl)C4=CC(=O)[C@@H]5C[C@@H]5[C@]4(C)[C@H]3CC[C@@]21C [CYPROTERONE ACETATE]", "> 30 µM"],
  ["NNC(=O)c1ccncc1 [ISONIAZID]", "> 30 µM"],
  ["COc1cc(C)c(/C=C/C(C)=C/C=C/C(C)=C/C(=O)O)c(C)c1C [ACITRETIN]", "> 10 µM"],
  ["O=C1c2ccccc2C(=O)C1c1ccccc1 [PHENINDIONE]", "> 10 µM"],
  ["C=CC[N+]1([C@H]2C[C@H]3[C@@H]4CC[C@H]5C[C@H](O)[C@@H](N6CCOCC6)C[C@]5(C)[C@H]4CC[C@]3(C)[C@H]2OC(C)=O)CCCC1 [ROCURONIUM]", "> 30 µM"],
  ["COc1cc2[nH]c(C)c(CCN3CCN(c4ccccc4)CC3)c2cc1OC [OXYPERTINE]", "> 30 µM"],
  ["C[N+]12CCC(CC1)C(OC(=O)C(O)(c1ccccc1)c1ccccc1)C2 (configuration not stated)", "> 30 µM"]
]}
